# Test system: Staphylococcus haemoliticus 10SBZ1A strain
# assayText: Bacterial growth assessment (doubling time, CFU/ml) in the presence of BZP and various hydrocarbon substrates as carbon source
# Format: cell-based
# conditionLabel: substrate as carbon source
# Method: Bacterial growth assessment in the presence of BZP and various hydrocarbon molecules: effect of pH and salinity. […] Growth was monitored as a measure of CFU/ml. Bacterial doubling time (dt) was calculated by fitting growth curves data points into […] equation, where Q is the bacterial CFU ml^−1 at time t, Qo is the initial bacterial count in the culture, and k is the growth rate. […] Values were calculated with Microsoft Excel software (Version). […]
propertyName: strain dt in the presence of substrate (FIG. 3)

For this compound ( c1ccc2cc3ccccc3cc2c1 ), measured strain dt in the presence of substrate (FIG. 3) is 30 to 33 h
